tested on: K4 kissing-loop RNA reporter; experiment: apparent KD of K4 kissing-loop reporter; higher = weaker reporter binding; settings: Eterna round: R107; input ligand: none;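 further: bound reporter read as fluorescence of individual clusters on recovered sequencing chips by microscopy, with normalized cluster intensities fitted with a binding model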
Listed next: entries and their corresponding apparent KD of K4 kissing-loop reporter.
Use nM as the unit, but write only the number.

AGACCACAAAGUGGUCAGUGUUCGCUCCGGCGAGGACCGGUACGGCCGCCACUCGCGAGUGAUGUUCGCGAGCGGAGCGAACACA [Omei KL Tryp A Exc A v2]	99.9
GAUUAUUAUUCUAAAUAACAUUAUUCAGAAGGAGCGUGUUUGUACACAGGUAGGUCGCUGAAUGCUAAGCCAGUGAUGUUGGUAA [JR_SSArginiA_Sub001]	203
GAAGGUCAAAGACCUUCGUGCACAACUGAUACCAGUCGCGAAAGCGACCCUUGGCAGCAGGGCAGUGAUGUUGCCAGUGCACAAA [Omei KL Theo A SS A v3]	167
AACAGCAAUGCGGCCGCCACUUCGAGGUCAGUGAUGUUGACAGAAUUAAAUAAAGAUCCCAAGAGGAGGACCGGGCAGUGCUGUU [whbob_SS_Tryp_B_t24]	674
UUUCGGUUCUGAGGAUAUUCGGACAAAUAUAGUGAUGUUGUAUAAGGAGGAGGGUGUUGGCAGUGAGGAGAAGGCAGAAGAGGAU [ExFMNB.T]	946

The sequence listed as GCAAAACGCAGUGAUGUUGCGAUAUCGGAAGGAGCGCGUGAAAACGCAGGUAGGUCGCCGAUUCAGUGAGUAUCUCGCUGUUUGC [Arginine A K4 18] shows apparent KD of K4 kissing-loop reporter equal to 293
